Tested on: SW-620 colon
Test: NCI tumour cell line growth inhibition, 48 h
Documented TGI across a set of molecules

>  <structure.notation>
N#Cc1nc(CCN2C(=O)c3ccccc3C2=O)oc1N

>  <TGI>
> 100 µM

$$$$
>  <structure.notation>
COc1ccc(/C=C/C(=O)c2cc(OC)c(OC)c(OC)c2)cc1OCC(=O)Nc1nc2ccc(OC(F)(F)F)cc2s1

>  <TGI>
> 100 µM

$$$$
>  <structure.notation>
CCN1C/C(=C\c2cc(OC)c(OC)cc2OC)C(=O)/C(=C/c2cc(OC)c(OC)cc2OC)C1

>  <TGI>
13.3 µM

$$$$
>  <structure.notation>
C#C[C@]1(O)CC[C@H]2[C@@H]3CCC4=C/C(=N/OCCN(C)C)CC[C@]4(C)[C@H]3CC[C@@]21C

>  <TGI>
> 100 µM

$$$$

----------
Entries and their TGI
System: SK-MEL-5 melanoma
Assay: NCI tumour cell line growth inhibition, 48 h
Starred links: 1 amine or outer side, 2 acyl side, 3 side chain; linkers in the order of their positions; H or OH if unused. Positions of bridges follow the written chain, without caps; N, C: chain ends. Non-standard residues stand in square brackets, D forms with d. Residues, ends and D or L forms follow the SMILES beside them. Chains are numbered I, II in the order given. Actinocin(1to9) = Cc1c2oc3c(C)ccc(C(=O)[*:2])c3nc-2c(C(=O)[*:1])c(N)c1=O; NMeV = CN[CH](C(=O)O)C(C)C; Sar = CNCC(=O)O
measured.endpoint: TGI

>  <molecule>
COc1ccc(C2NC(=S)Nc3c2c(=O)oc2c3ccc3ccccc32)cc1 (stereo not given)

>  <measured.endpoint>
TGI

>  <measured.value>
> 100 µM

$$$$
>  <molecule>
NNC(=S)N/N=C(\C(=O)Nc1cccc(O)c1)C1C(=O)NC(=S)NC1=O

>  <measured.endpoint>
TGI

>  <measured.value>
> 100 µM

$$$$
>  <molecule>
N.N.N.N.N.[Co+3].[I-].[N-]=[N+]=[N-]

>  <measured.endpoint>
TGI

>  <measured.value>
> 100 µM

$$$$
>  <molecule>
Cc1coc2c1C[C@@]1(C)[C@H](CCC[C@@H]1C)[C@H]2O

>  <measured.endpoint>
TGI

>  <measured.value>
28.9 µM

$$$$
>  <molecule>
COc1ccccc1NC(=S)NN=C(C)c1cccc(C(C)=NNC(=S)Nc2ccccc2OC)n1

>  <measured.endpoint>
TGI

>  <measured.value>
32.7 µM

$$$$
>  <molecule>
N#Cc1cccc2c1Nc1ccccc1S2

>  <measured.endpoint>
TGI

>  <measured.value>
> 100 µM

$$$$
>  <molecule>
CC(N)C(Cc1ccc(Cl)cc1)c1ccc(Cl)cc1 (stereo not given)

>  <measured.endpoint>
TGI

>  <measured.value>
25.1 µM

$$$$
>  <molecule>
CN(C)C=Nc1ccn(CCO)c(=O)n1

>  <measured.endpoint>
TGI

>  <measured.value>
> 100 µM

$$$$
>  <molecule>
Nc1nc2c3nc(Nc4ccccc4)sc3nc(=S)n2c2sc(Nc3ccccc3)nc12

>  <measured.endpoint>
TGI

>  <measured.value>
> 100 µM

$$$$
>  <molecule>
CC[C@H](C)[C@H]1NC(=O)[C@@H](NC(=O)[C@@H](CC(C)C)N(C)C(=O)C2CCCN2C(=O)[C@H](C)O)[C@@H](C)OC(=O)[C@H](Cc2ccc(OC)cc2)N(C)C(=O)[C@@H]2CCCN2C(=O)[C@H](CCCCNC(=O)OCc2ccccc2)NC(=O)[C@H](C)C(=O)[C@H](C(C)C)OC(=O)C[C@@H]1O (stereo not given in full)

>  <measured.endpoint>
TGI

>  <measured.value>
> 25 µM

$$$$
>  <molecule>
COC(=O)C(NC(=O)C(CC(=O)OC(C)(C)C)NC(=O)OC(C)(C)C)C(O)c1ccccc1 (stereo not given)

>  <measured.endpoint>
TGI

>  <measured.value>
> 100 µM

$$$$
>  <molecule>
COC(=O)C(Cc1cc(OC)c(OC)c(OC)c1)C(=O)OC

>  <measured.endpoint>
TGI

>  <measured.value>
> 320 µM

$$$$
>  <molecule>
COc1ccc(N=NC(=O)NC(Cc2ccccc2)C(=O)O)cc1 (stereo not given)

>  <measured.endpoint>
TGI

>  <measured.value>
> 100 µM

$$$$
>  <molecule>
CS(=O)(=O)Nc1cncc(-c2ccc3ncnc(Nc4ccc(F)c(Cl)c4)c3c2)c1

>  <measured.endpoint>
TGI

>  <measured.value>
4.48 µM

$$$$
>  <molecule>
CCC(C)C1NC(=O)C(NC(=O)c2c3nc4c(C(=O)NC5C(=O)NC(C(C)CC)C(=O)N6CCCC6C(=O)N(C)CC(=O)N(C)C(C(C)C)C(=O)OC5C)ccc(C)c4oc-3c(C)c(=O)c2N)C(C)OC(=O)C(C(C)C)N(C)C(=O)CN(C)C(=O)C2CCCN2C1=O (stereo not given) (I: TIP[Sar][NMeV] / II: TIP[Sar][NMeV]; ester I:1-I:C, II:1-II:C; linker I:N-II:N via Actinocin(1to9); configuration not given here)

>  <measured.endpoint>
TGI

>  <measured.value>
0.018 µM

$$$$

----------
Test system: NCI/ADR-RES ovarian
Test: NCI tumour cell line growth inhibition, 48 h

>  <compound>
O=C(NC1(c2cc3ccccc3s2)CCCCC1)C1CCC1

>  <TGI>
> 100 µM

$$$$
>  <compound>
O=C(O)CCCC(=O)Nn1c(Cc2ccc(Cl)cc2)n[nH]c1=O

>  <TGI>
> 100 µM

$$$$
>  <compound>
O=Nc1ccc(O)c(=O)cc1

>  <TGI>
10.6 µM

$$$$
>  <compound>
Oc1ccc(O)c(CNc2ccc(C(O)C(F)(F)F)cc2)c1 (stereo not given)

>  <TGI>
> 100 µM

$$$$
>  <compound>
CC(O)(Cc1ccccc1C#N)Cc1ccccc1C#N

>  <TGI>
> 100 µM

$$$$
>  <compound>
CC(C)(Br)C(=O)N1CCN(C(c2ccccc2)c2ccccc2)CC1

>  <TGI>
> 100 µM

$$$$
>  <compound>
CCN(CC)c1ccc(/C=N/NC(=O)CSc2nc3ccccc3c(=O)n2CCc2ccc(S(N)(=O)=O)cc2)c(O)c1

>  <TGI>
> 100 µM

$$$$
>  <compound>
CCN(Cc1ccc(C)cc1)c1ccc(CO)c(Cl)c1

>  <TGI>
25.3 µM

$$$$
>  <compound>
CC(=O)Nc1ccc2c(c1)C(c1ccccc1Cl)=Nc1c(n[nH]c1C)N2

>  <TGI>
> 25 µM

$$$$
>  <compound>
c1ccc([P+](CCSCCSCC[P+](c2ccccc2)(c2ccccc2)c2ccccc2)(c2ccccc2)c2ccccc2)cc1

>  <TGI>
> 100 µM

$$$$
>  <compound>
CC(=O)C1=C(C)N2C(=NC3=C(CCc4ccccc43)C2c2ccc(F)cc2)S1 (stereo not given)

>  <TGI>
> 100 µM

$$$$
>  <compound>
Cc1cc2nc3c4cc(O)ccc4n(CCN(C)C)c3nc2cc1C

>  <TGI>
4.2 µM

$$$$
>  <compound>
COC(=O)C(N)CCCC(N)C(=O)NC(C)C(=O)NC(CCC(=O)NCCNCCNc1c2ccccc2nc2cccc([N+](=O)[O-])c12)C(N)=O (stereo not given)

>  <TGI>
> 100 µM

$$$$
>  <compound>
CCOC(=O)c1nc2ccc(C(F)(F)F)cc2nc1NCc1ccc(OC)cc1

>  <TGI>
> 100 µM

$$$$
>  <compound>
Cc1cc(C)n(CC(Cn2nc(C)cc2C)=C(/C(Cl)=C(/Cl)Nc2ccc([N+](=O)[O-])cc2)[N+](=O)[O-])n1

>  <TGI>
> 32.8 µM

$$$$

----------
System: OVCAR-4 ovarian
Test: NCI tumour cell line growth inhibition, 48 h
measured.endpoint: TGI

>  <compound>
Nc1nc2c3nc(Nc4ccccc4)sc3nc(=S)n2c2sc(Nc3ccccc3)nc12

>  <measured.endpoint>
TGI

>  <measured.value>
> 100 µM

$$$$
>  <compound>
O=P12N(CCN1c1ccccc1)CCN2c1ccccc1

>  <measured.endpoint>
TGI

>  <measured.value>
> 100 µM

$$$$
>  <compound>
CCOC(=O)c1cc(C(=O)c2cc(OC)c(OC)c(OC)c2)n2ncccc12

>  <measured.endpoint>
TGI

>  <measured.value>
> 100 µM

$$$$
>  <compound>
COC(=O)C(NC(=O)C(CC(=O)OC(C)(C)C)NC(=O)OC(C)(C)C)C(O)c1ccccc1 (stereo unspecified)

>  <measured.endpoint>
TGI

>  <measured.value>
> 100 µM

$$$$
>  <compound>
CC(C)(C)c1ccc(S(=O)(=O)Oc2ccc3c4c(c(=O)oc3c2)CCCCC4)cc1

>  <measured.endpoint>
TGI

>  <measured.value>
40.7 µM

$$$$
>  <compound>
COC[C@@H](N=C1NC(=O)/C(=C/c2ccc3ncccc3c2)S1)c1ccccc1

>  <measured.endpoint>
TGI

>  <measured.value>
> 25 µM

$$$$
>  <compound>
C=C=C(CC1CCCCC1=O)S(=O)(=O)c1ccccc1 (stereo unspecified)

>  <measured.endpoint>
TGI

>  <measured.value>
> 10 µM

$$$$
>  <compound>
CN(C)c1ccc(C=Nc2ccc(-c3nc4ccccc4[nH]3)cc2)cc1

>  <measured.endpoint>
TGI

>  <measured.value>
> 100 µM

$$$$
>  <compound>
Fc1cccc(COc2ccc(Nc3ncnc4sc(-c5cccs5)cc34)cc2Cl)c1

>  <measured.endpoint>
TGI

>  <measured.value>
8.66 µM

$$$$
>  <compound>
CC(=O)C1=C(C)N2C(=NC3=C(CCc4ccccc43)C2c2ccc(F)cc2)S1 (stereo unspecified)

>  <measured.endpoint>
TGI

>  <measured.value>
> 100 µM

$$$$
>  <compound>
Cc1cc(S(=O)(=O)Nc2n[nH]c(Nc3ccc(Cl)cc3)n2)c(S)cc1Cl

>  <measured.endpoint>
TGI

>  <measured.value>
> 100 µM

$$$$
>  <compound>
Nc1ccc2c(O)cc(=O)[nH]c2n1

>  <measured.endpoint>
TGI

>  <measured.value>
> 100 µM

$$$$
>  <compound>
Nc1c(C(=O)O)nnc2cc(Cl)c(Cl)cc12

>  <measured.endpoint>
TGI

>  <measured.value>
> 100 µM

$$$$
>  <compound>
O=C(O)c1ccc(C(=O)c2ccccc2C(=O)O)cc1C(=O)O

>  <measured.endpoint>
TGI

>  <measured.value>
> 100 µM

$$$$
>  <compound>
CN(C)C=Nc1ccn(CCO)c(=O)n1

>  <measured.endpoint>
TGI

>  <measured.value>
> 100 µM

$$$$
>  <compound>
Cc1cn([C@@H]2C[C@@H]2CO)c(=O)[nH]c1=O

>  <measured.endpoint>
TGI

>  <measured.value>
> 100 µM

$$$$
>  <compound>
Cn1cnc([N+](=O)[O-])c1Sc1nc(N)nc2c1ncn2C1OC(CO)C(O)C1O (stereo unspecified)

>  <measured.endpoint>
TGI

>  <measured.value>
> 100 µM

$$$$
>  <compound>
CCN1C/C(=C\c2cc(OC)c(OC)cc2OC)C(=O)/C(=C/c2cc(OC)c(OC)cc2OC)C1

>  <measured.endpoint>
TGI

>  <measured.value>
> 100 µM

$$$$
>  <compound>
N#Cc1c(-c2ccc(Cl)c(Cl)c2)c(-c2ccc(Cl)c(Cl)c2)nn(CC(=O)O)c1=O

>  <measured.endpoint>
TGI

>  <measured.value>
> 100 µM

$$$$
>  <compound>
Cc1cc(O)c(=O)cc2c1C[C@H]1CC(C)(C)/C=C/C[C@]3(C)Oc4cc(=O)c(O)cc(C)c4C[C@H]3C[C@H](O)[C@@]1(C)O2

>  <measured.endpoint>
TGI

>  <measured.value>
> 100 µM

$$$$
>  <compound>
COc1cc(C2Cc3ncccc3-c3[nH]c(=O)c4cccnc4c32)cc(OC)c1OC (stereo unspecified)

>  <measured.endpoint>
TGI

>  <measured.value>
> 100 µM

$$$$

The reported measurements were obtained from PubChem BioAssay (NCI).
